# EXPERIMENT SUMMARY: Thermodynamic solubility of compound in PBS at pH 7.4
# Assay type: physicochemical
# TEST CONDITIONS: read-out: Therm_solubility
Measured solubility thermodynamic, listed per entry.

SMILES STRING: CN(C)CCNC(=O)Nc1ccc(-c2ccc3ncc4c(c3c2)n(C2CCOCC2)c(=O)n4C)cn1
solubility thermodynamic (µM): 36
--
SMILES STRING: CN(C)CCNC(=O)Nc1ccc(-c2ccc3ncc4c(c3c2)n(C2CCOCC2)c(=O)n4C)cc1
solubility thermodynamic (µM): 39
--
SMILES STRING: COCCn1c(=O)n(C)c2cnc3ccc(-c4ccc(NC(=O)NCCN(C)C)cc4)cc3c21
solubility thermodynamic (µM): 1570
--
SMILES STRING: CN(C)CCCOc1ccc(-c2ccc3ncc4c(c3c2)n(C2CCOCC2)c(=O)n4C)cn1
solubility thermodynamic (µM): 2970
